- TARGET ENTITY: BTK (Homo sapiens, UniProt Q06187)
- Construct: endogenous in cells; host or cells: Ramos (ATCC CRL-1596)
- Sequence (Q06187 whole entry): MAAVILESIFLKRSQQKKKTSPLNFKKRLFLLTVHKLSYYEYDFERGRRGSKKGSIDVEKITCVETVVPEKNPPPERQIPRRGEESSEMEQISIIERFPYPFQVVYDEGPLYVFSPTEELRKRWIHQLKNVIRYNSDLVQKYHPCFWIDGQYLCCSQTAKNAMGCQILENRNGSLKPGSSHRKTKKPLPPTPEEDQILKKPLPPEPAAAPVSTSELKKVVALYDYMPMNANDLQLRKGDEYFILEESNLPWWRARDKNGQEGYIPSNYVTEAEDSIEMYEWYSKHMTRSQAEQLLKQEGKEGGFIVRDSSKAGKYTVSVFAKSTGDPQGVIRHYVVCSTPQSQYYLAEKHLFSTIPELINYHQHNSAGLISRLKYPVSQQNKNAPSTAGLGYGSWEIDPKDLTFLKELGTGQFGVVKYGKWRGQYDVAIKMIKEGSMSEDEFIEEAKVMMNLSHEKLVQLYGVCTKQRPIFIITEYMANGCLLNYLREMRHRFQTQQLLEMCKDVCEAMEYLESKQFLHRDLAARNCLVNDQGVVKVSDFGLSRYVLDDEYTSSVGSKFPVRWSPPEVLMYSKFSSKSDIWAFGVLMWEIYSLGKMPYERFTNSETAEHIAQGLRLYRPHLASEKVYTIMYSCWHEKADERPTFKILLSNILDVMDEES
- ASSAY OVERVIEW: Cellular BTK HTRF Assay (BTK levels in Ramos cells)
- Format: cell-based
- CONDITION DESCRIPTION: Ramos cells, 50,000 cells, incubated four hours at 37° C.; BTK levels by Cisbio Total-BTK HTRF relative to DMSO-treated cells
PROPERTY MEASURED: DC50

Example results:
COMPOUND: Cn1cc(-c2ccnc(-n3ncc4cc(C(C)(C)C)cc(F)c4c3=O)c2CO)cc(Nc2cc3n(n2)CCN(C(=O)[C@H]2C[C@@H](OCCCc4cccc5c4CN(C4CCC(=O)NC4=O)C5=O)C2)C3)c1=O (stereo partly drawn)
DC50: 10 to 1000 nM

COMPOUND: CN[C@@H](C)C(=O)N[C@H](C(=O)N1C[C@@H](NC(=O)CCOCCC(=O)N2CCn3nc(Nc4cc(-c5ccnc(-n6ncc7cc(C(C)(C)C)cc(F)c7c6=O)c5CO)cn(C)c4=O)cc3C2)C[C@H]1C(=O)N[C@@H]1CCCc2ccccc21)C1CCCCC1
DC50: 10 to 1000 nM

COMPOUND: C[C@@H]1CN(C(=O)NCCCCCCOCCCc2cccc3c2CN(C2CCC(=O)NC2=O)C3=O)CCN1c1ccc(Nc2cc(-c3ccnc(N4CCn5c(cc6c5CC(C)(C)C6)C4=O)c3CO)cn(C)c2=O)nc1 (stereo partly drawn)
DC50: 1 to 10 nM

Request the reported DC50 associated with C[C@H]1CN(C(=O)CN2CCN(Cc3cccc4c3CN(C3CCC(=O)NC3=O)C4=O)CC2)CCN1c1ccc(Nc2cc(-c3ccnc(N4CCn5c(cc6c5CC(C)(C)C6)C4=O)c3CO)cn(C)c2=O)nc1 (stereo partly drawn)
10 to 1000 nM

And for Cn1cc(-c2ccnc(-n3ncc4cc(C(C)(C)C)cc(F)c4c3=O)c2CO)cc(Nc2cc3n(n2)CCN(C(=O)CCOCCNc2cccc4c2C(=O)N(C2CCC(=O)NC2=O)C4=O)C3)c1=O (stereo not drawn) ?
1 to 10 nM

And for C[C@H]1CN(C(=O)CCOCCC(=O)Nc2cccc3c2CN(C2CCC(=O)NC2=O)C3=O)CCN1c1ccc(Nc2cc(-c3ccnc(N4CCn5c(cc6c5CC(C)(C)C6)C4=O)c3CO)cn(C)c2=O)nc1 (stereo partly drawn) ?
1 to 10 nM

---

- TARGET ENTITY: BTK (Homo sapiens, UniProt Q06187)
- Construct: endogenous in cells; host or cells: Ramos (ATCC CRL-1596)
- ASSAY OVERVIEW: Cellular BTK HTRF Assay (BTK levels in Ramos cells)
- Format: cell-based
- CONDITION DESCRIPTION: Ramos cells, 50,000 cells, incubated four hours at 37° C.; BTK levels by Cisbio Total-BTK HTRF relative to DMSO-treated cells
PROPERTY MEASURED: DC50

COMPOUND: C[C@@H]1CN(C(=O)N(C)CCOCCOCCOCCOCCCc2cccc3c2CN(C2CCC(=O)NC2=O)C3=O)CCN1c1ccc(Nc2cc(-c3ccnc(N4CCn5c(cc6c5CC(C)(C)C6)C4=O)c3CO)cn(C)c2=O)nc1 (some centres unmarked)
RESULT: 1 to 10 nM

Shifting focus to the compound that follows.
Request the reported DC50 associated with C[C@H]1CN(C(=O)CCCN2CCN(c3cc4c(cc3F)C(=O)N(C3CCC(=O)NC3=O)C4=O)CC2)CCN1c1ccc(Nc2cc(-c3ccnc(N4CCn5c(cc6c5CC(C)(C)C6)C4=O)c3CO)cn(C)c2=O)nc1 (some centres unmarked)
1 to 10 nM
